molecular target: HLA-A*02:01; assay: IEDB peptide-MHC binding, purified MHC/competitive/radioactivity; bounds were set here for any values at or beyond the usual limits of such assays; details: source organism: Homo sapiens
Test readout: IC50 (nM)
Give the value, in units of nM, as a plain number.

The sequence listed as SLLPAIVEL has a reported IC50 of 24

###

This section presents sequences with their documented pKd values.
biological target: HLA-A*01:01; assay: IEDB peptide-MHC binding, purified MHC/competitive/radioactivity; filed as Kd, often an IC50 or EC50 that approximates it; bounds were set here for any values at or beyond the usual limits of such assays; details: source organism: Homo sapiens
pKd: −log10 of the molar value.

// solved cases for pKd follow
- Seq: "LLDVPTAAV"
  pKd: 5.37
- Seq: "SLLPAIVEL"
  pKd: "≤ 5.30"
- Seq: "RVMAPRALL"
  pKd: "≤ 5.30"

Now consider a different sequence.
Briefly, pKd measured for YLLPAIVHI : ≤ 5.30

###

molecular target: HLA-B*07:02; assay: IEDB peptide-MHC binding, purified MHC/competitive/radioactivity; bounds were set here for any values at or beyond the usual limits of such assays; settings: source organism: Homo sapiens
Test readout: IC50 (nM)
Report the value in nM with no unit label.

Item: RVMAPRALL | System: HLA-B*07:02 | IC50: 4.6

###

target: HLA-A*03:01; assay: IEDB peptide-MHC binding, purified MHC/competitive/radioactivity; bounds were set here for any values at or beyond the usual limits of such assays; conditions: source organism: Homo sapiens
Test readout: IC50 (nM)
Use nM as the unit, but write only the number.

Entry RVMAPRALL , IC50 reported as 905
